test system: MS2 coat protein; experiment: apparent KD of MS2 coat protein; designed switch direction (-1 OFF switch, 1 ON switch): -1; higher = weaker reporter binding; conditions: Eterna round: R95; input ligand: none

Sequence Chain	Scale Unit	apparent KD of MS2 coat protein
AAGAAACAUGAGGAUCACCCAUGUGAGGAUAUGAUGAAGAAAAGAAAAGAAAGAAGAAUCAGAAGGCACAAAGG [salish99-ex1_r3_043] (puzzle: Exclusion 1)	nM	66.5
UAUACUAGAUAGGAUAUACUAUAUAUAUUUUUCGUAGAAGGAUCUACAUGAGGAUCACCCAUGUUAACAGCAGU [JR_E6_Sub007] (puzzle: Exclusion 6)	nM	41.5
AGGGAACGAGGAUAUCGAUGGUGGAACAUGAGGAUCACCCAUGUAUGAGAUAGAGUAGGGCGAGAAGGCGUUAAGA [JR_E5_Sub051] (puzzle: Exclusion 5)	nM	84.9
AGUACUAACACGUAAGUGUUAGUACAAUAAGCUUGUGAAACAUGAGGAUCACCCAUGUCCUCAUAAGCUCGUCUUAU [salish99_TOv2_r3_025] (puzzle: Sensor v3, turn-off variant 2)	nM	15.4
CUGAGCAGACGAAGAUCCAACAUGAGGAUCACCCAUGUCUCAAAAGCUUUUUGCUUGUCUUAUCCUUCCCUGCUCUC [Isbies] (puzzle: Sensor v3, turn-off variant 1)	nM	12.9
AAAAGCAAGCAAAGAUUCUACAUGAGGAUCACCCAUGUGCUCGUCUUAUAAAGUACUAUCACGAAAGUGAUAGUACA [Sensor 3, v1 - 42] (puzzle: Sensor v3, turn-off variant 1)	nM	19.7
AUUUAGAGAGGAUAUAUAUUUUAAAACAUGAGGAUCACCCAUGUAAUUUUAUGGGAGUAAAUAGAAGGCUCAUUUA [JMFs Solution 2] (puzzle: Exclusion 5)	nM	53.1
AGAAGUAGGAACCGAUCCUACAUGAGGAUCACCCAUGUAGCAAGACGUGCACGCGAAGCUCGUCAGACUACCAGAUG [salish99_TOv1_r3_021] (puzzle: Sensor v3, turn-off variant 1)	nM	531
AAUUUAACAUAGGAUAUCGAAUUUAUUAUUUAACGAGAAGGAUGAACAUGAGGAUCACCCAUGUGGUAUCAUGG [Mat - Exclusion 6 - JL Mod - D22] (puzzle: Exclusion 6)	nM	174
GGUACUAACAGCUGACUGUUAGUACUGUAGGUUUGUGUUACAUGAGGAUCACCCAUGUCCUCAUAGGCUCGUCUUGU [JL-sv3-2.24 mat747 mod] (puzzle: Sensor v3, turn-off variant 2)	nM	739
CAUGUCCGAGGAUAUAUUAUGUGAAACAUGAGGAUCACCCAUGUUAUAUGAUGGAUGUAAAUAGAAGGCGGACGUG [Mat - Exclusion 5 - JL mod - D65] (puzzle: Exclusion 5)	nM	34.5
GCUUGGCGAGGAUAUACAUGAGGAUCACCCAUGUGAGAGAAGAAAGUGAGGAAGAAAAGUAGAAGGCGCUGAGG [Mat - Exclusion 3 - Mod of Salish D61] (puzzle: Exclusion 3)	nM	63
AAAUGCAAGUAAAGAUCUUACAUGAGGAUCACCCAUGUGCUCGUCUUAUAAAGUACUAUCACGAAAGUGAUAGUACA [Sensor 3, v1 - 27] (puzzle: Sensor v3, turn-off variant 1)	nM	19.3
AGUACUAACACGAACGUGUUAGUACAAUAAGCUUGUGAAACAUGAGGAUCACCCAUGUCCUCAUAAGCUCGUCUUAU [salish99_TOv2_r3_034] (puzzle: Sensor v3, turn-off variant 2)	nM	16.2
AGUACUAACACGAUAGUGUUAGUACAAUAAGCUUGUGAAACAUGAGGAUCACCCAUGUCCUCAUAAGCUCGUCUUAU [salish99_TOv2_r3_030] (puzzle: Sensor v3, turn-off variant 2)	nM	14.6
CUGAGCAGACGGAGAUCCAACAUGAGGAUCACCCAUGUCUCAAAAGCUUUUUGCUCGUCUUAUUCUCCUCUGUUCUC [Ainre] (puzzle: Sensor v3, turn-off variant 1)	nM	12.5
UUUUUCGAACAAGCUUCGUACAUGAGGAUCACCCAUGUUUUUAGAUUUGAGUAGGUUUGUAUGGAAGUUCGUCUUAU [JR_SV3TOV1_Sub087] (puzzle: Sensor v3, turn-off variant 1)	nM	34.3
CGUGUCUUUUACGUGAGUGGUGGGUGCAACAGGUGGGUUACAUGAGGAUCACCCAUGUCCUCACUUGCUCGUCUUUU [Grok-var2-08] (puzzle: Sensor v3, turn-off variant 2)	nM	69.8
UUUAAUUUUUUUUUUUUACAAGCUUUUUGCUCGUCUUAUACAUGAGGAUCACCCAUGUAGAUGGGAAGUAAAUUAUC [JMF 53] (puzzle: Sensor v3, turn-off variant 2)	nM	24.5
UGUACUAACACGAAAGUGUUAGUACAAUAAGCUUGUGUUACAUGAGGAUCACCCAUGUCCUCAUAAGCUCGUCUUAU [Mat - Sensor v3 - Turn-off var 2 - D51] (puzzle: Sensor v3, turn-off variant 2)	nM	99.2

====

tested on: MS2 coat protein; experiment: apparent KD of MS2 coat protein; designed switch direction (-1 OFF switch, 1 ON switch): -1; higher = weaker reporter binding; settings: input ligand: none
Records here are stratified by apparent KD of MS2 coat protein; strata: lowest: < 40 nM; middle: ≥ 40 nM and < 200 nM; highest: ≥ 200 nM

Sequence Chain	Class Label
AAACGGCGGAUCGUGGCUUUUUGCUCGUCUUGUGCUUCGACAUGAGGAUCACCCAUGUGGUGGUGAUCCGUUGUAAA [Grok-var2-16 mod JAL] (Eterna round: R96, puzzle: Sensor v3, turn-off variant 2)	middle
AGAGAAUACUCAGGAUAUGUGAAUAGAUAGAGAACAGAAGGGAGACAUGAGGAUCACCCAUGUGAAGUCUUGAGGCUGCAUGGA [Prohibition 23 - Jieux - Exclusion NG 1] (Eterna round: R96, puzzle: Exclusion NG 1)	highest
UUUUUUUUGCUGGUUUUUUACAUGAGGAUCACCCAUGUCCUCUGCUUGUCUUGUGUUGUGCUGGUUUCUGGUGCGGC [Revision to "-18.4 -40.2 kcal, A 8%"by Sellena] (Eterna round: R97, puzzle: Sensor, turn-off variant 1)	highest
AAGAUGCCAAAGGAUAUCGAAGGAGUGGCGCGGCGAGAAGGUUGGACAUGAGGAUCACCCAUGUGGUGGCUCCC [Usmaarri] (Eterna round: R97, puzzle: Exclusion 6)	highest
CUUGUUUAUGUAGGAUAUGCCUGGCGUGCCUUUGCAGAAGGACAUGAGGAUCACCCAUGUAACAUGAGGCUAACCCUUGUCGCC [salish99_ExNG1_r04_118] (Eterna round: R96, puzzle: Exclusion NG 1)	middle
AAUUUUUGAUACCUUUAAUACAUGAGGAUCACCCAUGUUAUCGAGGAUAUGUAGAUGAAAUGAGAACAGAAGGCGAAGUAAGAG [JR_ExcNG3_Sub099] (Eterna round: R96, puzzle: Exclusion NG 3)	lowest
UCUCUUGGGCAAGGAUAUCCUGCGCGGUUCCGGUUCGUGUCUGUCACAUGAGGAUCACCCAUGUGGGAGAAGGUGCCUGCGGUG [Design 75] (Eterna round: R96, puzzle: Exclusion NG 2)	lowest
ACUUACUGAGGAUAUACAUAGAUUUACAUGAGGAUCACCCAUGUUCCUCUAUGUAUAAAUGUAGAAGGCAGAAGAU [Mat - Exclusion 5 - JL Mod - D55] (Eterna round: R97, puzzle: Exclusion 5)	lowest
UUUCAUCAUGUAGGAUAUGCGUGGCGAAGCUAUGCAGAAGGACAUGAGGAUCACCCAUGUUCUUGCGUCUGCGUACAGAUGCAA [JL ENG1 1.34] (Eterna round: R96, puzzle: Exclusion NG 1)	middle
UAAAGUAUAUAGGAUAUCUAGCUGGAAACAGCUAGAGAAGGAUGUACAUGAGGAUCACCCAUGUAAAUCGUGAA [Ex6/13-A1] (Eterna round: R97, puzzle: Exclusion 6)	lowest
UUAUUAAUUAAUAUUAUAAGAUCACAUGAGGAUCACCCAUGUCAGGAUAUCAGCUCGUGUAGAGCUGAGAAGGGACAAAUAAUA [ExNG3/15-B3] (Eterna round: R96, puzzle: Exclusion NG 3)	highest
AUUGUAUGAGGAUAUACACCAGUGGGAGUGUCUUGCGUGAUACAUGAGGAUCACCCAUGUAGAAGGCGUACUAC [Eternabot (L2) Solution 90] (Eterna round: R97, puzzle: Exclusion 2)	lowest
AUUUAGCAAGUCAGAUCCUACAUGAGGAUCACCCAUGUUGUUCGUCUUAUUUGAAGACAACACAAAAGUGUUGUCUU [Omei Mir OFFv1 B5] (Eterna round: R97, puzzle: Sensor, turn-off variant 1)	middle
GCUAAACAAGGAUAUACAUGAGGAUCACCCAUGUAGGCAUAGGGUGAAGCACGCCUAUGUAGAAGGUGUCCGCA [Eternabot (Original) Solution 34] (Eterna round: R97, puzzle: Exclusion 3)	middle
AUUCCAACUUGAGGAUAUUAGUGGAACAGCCACUGAGAAGGCAGAUAACACCCUCAUAAACAUGAGGAUCACCCAUGUAGGAGA [Eternabot solution 44] (Eterna round: R96, puzzle: Exclusion NG 1)	middle
AAGUAGACGGUGAGGAUAUAGGUGGAAUGACCCAUUUAGAAGGUACAUGAGGAUCACCCAUGUGGGUAACGUCG [Brourd's EX4 #28] (Eterna round: R97, puzzle: Brourd's mod of Exclusion 4)	middle
AACGUCGAAGGAUAUACAUGAGGAUCACCCAUGUGGGACCUGUAAUCUCACCCAUCGUGUAGAAGGUUGAGGUA [Learberi] (Eterna round: R97, puzzle: Exclusion 3)	lowest
AGUCGGAAGACAAAAGGAAACAUGAGGAUCACCCAUGUAAAGGGUGAAAACAAGCCACCCGCUCGUCUUAAAGAAAA [Mat - Sensor v2- JL mod - D44] (Eterna round: R96, puzzle: Sensor v2, turn-off variant)	middle
